System: Cryptosporidium oocysts
ASSAY NOTES: Oocyst shedding in feces of Cryptosporidium-infected immunosuppressed mice (modified Ziehl–Neelsen stain)
Type: in vivo
ASSAY CONDITIONS: vs infected non-treated G2; compounds 100 mg/kg/day, NTZ 250 mg/kg/day, orally from 7th day post-infection for 10 days
Reported R%: reduction percent in oocyst count by item:
ENDPOINT LABEL: R%: reduction percent in oocyst count (%)

- MOLECULE: "CC(=O)Oc1ccccc1C(=O)Nc1ncc([N+](=O)[O-])s1 [NTZ, nitazoxanide, reference compound]"
  ASSAY RESULT: 70
- MOLECULE: "Cc1ccc(C(C)C)c(OCC(=O)Nn2c(=O)c3cc4c(=O)n(NC(=O)COc5cc(C)ccc5C(C)C)c(=O)c4cc3c2=O)c1 [Compound 9]"
  ASSAY RESULT: 55
- MOLECULE: "Cc1ccc(C(C)C)c(OCC(=O)NN2C(=O)c3cccc4cccc(c34)C2=O)c1 [Compound 7a]"
  ASSAY RESULT: 51
- MOLECULE: "Cc1ccc(C(C)C)c(OCC(=O)NN2C(=O)c3ccc(C(=O)O)cc3C2=O)c1 [Compound 5b]"
  ASSAY RESULT: 57
- MOLECULE: "Cc1ccc(C(C)C)c(OCC(=O)NN2C(=O)c3ccccc3C2=O)c1 [Compound 5a]"
  ASSAY RESULT: 62
- MOLECULE: "Cc1ccc(C(C)C)c(OCC(=O)NN2C(=O)c3cccc4c(N)ccc(c34)C2=O)c1 [Compound 7b]"
  ASSAY RESULT: 67

* * *

ASSAY NOTES: Hemolytic activity assay (cytotoxicity on RBCs)
Assay type: cell-based, rat
ASSAY CONDITIONS: rat, washed erythrocytes (RBCs) suspended in PBS, pH 7.4, 500 μg/mL, 60 min at 37°C
Reported hemolysis at 60 min, 500 μg/mL by item:
ENDPOINT LABEL: hemolysis at 60 min, 500 μg/mL

- COMPOUND: "Cc1ccc(C(C)C)c(OCC(=O)NN2C(=O)c3cccc4c(N)ccc(c34)C2=O)c1 [Compound 7b]"
  ASSAY RESULT: "0%"
- COMPOUND: "Cc1ccc(C(C)C)c(OCC(=O)Nn2c(=O)c3cc4c(=O)n(NC(=O)COc5cc(C)ccc5C(C)C)c(=O)c4cc3c2=O)c1 [Compound 9]"
  ASSAY RESULT: "0%"
- COMPOUND: "Cc1ccc(C(C)C)c(OCC(=O)NN2C(=O)c3ccc(C(=O)O)cc3C2=O)c1 [Compound 5b]"
  ASSAY RESULT: "0%"
- COMPOUND: "Cc1ccc(C(C)C)c(OCC(=O)NN2C(=O)c3cccc4cccc(c34)C2=O)c1 [Compound 7a]"
  ASSAY RESULT: "5.02%"
- COMPOUND: "Cc1ccc(C(C)C)c(OCC(=O)NN2C(=O)c3ccccc3C2=O)c1 [Compound 5a]"
  ASSAY RESULT: "0%"

* * *

Reported hemolysis at 60 min, 1000 μg/mL by item:
ASSAY NOTES: Hemolytic activity assay (cytotoxicity on RBCs)
Format: cell-based, rat
ASSAY CONDITIONS: rat, washed erythrocytes (RBCs) suspended in PBS, pH 7.4, 1,000 μg/mL, 60 min at 37°C

- MOL SMILES: "Cc1ccc(C(C)C)c(OCC(=O)NN2C(=O)c3ccccc3C2=O)c1"
  hemolysis at 60 min, 1000 μg/mL: "0%"
- MOL SMILES: "Cc1ccc(C(C)C)c(OCC(=O)Nn2c(=O)c3cc4c(=O)n(NC(=O)COc5cc(C)ccc5C(C)C)c(=O)c4cc3c2=O)c1"
  hemolysis at 60 min, 1000 μg/mL: "35%"
- MOL SMILES: "Cc1ccc(C(C)C)c(OCC(=O)NN2C(=O)c3ccc(C(=O)O)cc3C2=O)c1"
  hemolysis at 60 min, 1000 μg/mL: "0%"
- MOL SMILES: "Cc1ccc(C(C)C)c(OCC(=O)NN2C(=O)c3cccc4c(N)ccc(c34)C2=O)c1"
  hemolysis at 60 min, 1000 μg/mL: "0%"
- MOL SMILES: "Cc1ccc(C(C)C)c(OCC(=O)NN2C(=O)c3cccc4cccc(c34)C2=O)c1"
  hemolysis at 60 min, 1000 μg/mL: "6.18%"
